# Experimental system: T1, recombinant human GM-CSF (human, UniProt P04141 18-144)
# T1 construct: also called rhGM-CSF; CSF2
# T1 sequence (P04141 18-144 limits assumed): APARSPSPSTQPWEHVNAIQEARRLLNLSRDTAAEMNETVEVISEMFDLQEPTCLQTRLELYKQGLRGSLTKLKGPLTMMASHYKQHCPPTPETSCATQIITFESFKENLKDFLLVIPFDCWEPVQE
# Test method notes: Biacore
# koff annotations
Write down the numeric answer in s⁻¹ and omit the unit.

Binder	koff / s⁻¹
1D2 SDR mutant HK54G (antibody, IgG1, V domains shown, also called X3 G) VH: QVQLVQSGAEVKKPGASVKVSCEASGYTFTDKYLHWVRQAPGQGLEWMAWINPGSGGTFYAQNFKGRVTVTRDTSINTAYLELTSLRLDDTSTYYCARGRDYYDQGAADLWGQGTMVTVSS VL: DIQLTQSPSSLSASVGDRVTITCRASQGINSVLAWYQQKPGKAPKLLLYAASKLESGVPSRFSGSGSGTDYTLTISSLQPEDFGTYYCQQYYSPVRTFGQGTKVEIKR	0.000448
1D2 SDR mutant HY103R (antibody, IgG1, V domains shown, also called X6 R) VH: QVQLVQSGAEVKKPGASVKVSCEASGYTFTDKYLHWVRQAPGQGLEWMAWINPKSGGTFYAQNFKGRVTVTRDTSINTAYLELTSLRLDDTSTYYCARGRDYRDQGAADLWGQGTMVTVSS VL: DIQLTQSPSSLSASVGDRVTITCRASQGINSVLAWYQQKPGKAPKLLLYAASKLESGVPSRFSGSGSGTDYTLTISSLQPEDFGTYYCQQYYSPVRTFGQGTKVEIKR	0.00057

QUERY: What does the data say about its koff? Entry: 1D2 SDR mutant K54G/V32R (antibody, IgG1, V domains shown, also called 54G/32R) VH: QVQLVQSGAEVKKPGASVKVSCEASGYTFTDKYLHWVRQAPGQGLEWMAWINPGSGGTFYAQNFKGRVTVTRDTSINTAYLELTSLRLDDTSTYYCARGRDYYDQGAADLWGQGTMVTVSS VL: DIQLTQSPSSLSASVGDRVTITCRASQGINSRLAWYQQKPGKAPKLLLYAASKLESGVPSRFSGSGSGTDYTLTISSLQPEDFGTYYCQQYYSPVRTFGQGTKVEIKR
RESULT: 0.00197

FYI, the data here is from patent US20210309732A1.
